target: Beta Secretase enzyme (BACE) (Homo sapiens); test: In vitro enzymatic BACE FRET (fluorescence resonance energy transfer) assay; format: biochemical; settings: average IC50, enzyme assay; read-out: BACE 1 FRET assay
Sequence (P56817 46-501, species assumed): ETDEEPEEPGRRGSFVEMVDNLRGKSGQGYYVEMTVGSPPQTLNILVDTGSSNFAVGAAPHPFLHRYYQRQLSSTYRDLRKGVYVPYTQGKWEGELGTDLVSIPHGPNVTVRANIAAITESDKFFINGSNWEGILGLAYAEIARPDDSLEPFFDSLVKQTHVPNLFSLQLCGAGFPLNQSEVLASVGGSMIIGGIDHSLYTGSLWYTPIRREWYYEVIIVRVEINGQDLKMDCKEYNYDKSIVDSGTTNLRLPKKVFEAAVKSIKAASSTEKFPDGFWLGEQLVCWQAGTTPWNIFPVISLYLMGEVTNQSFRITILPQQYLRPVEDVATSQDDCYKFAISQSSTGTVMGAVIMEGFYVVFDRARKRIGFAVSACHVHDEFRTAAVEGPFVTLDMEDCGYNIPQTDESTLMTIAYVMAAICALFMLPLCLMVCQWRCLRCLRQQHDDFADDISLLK
Classes by IC50: bottom range (below 1 nM), center range (1 nM to below 9 nM), top range (9 nM or more)

Exam item: assign NC1=N[C@@]2(CO1)c1cc(C#CC3CC3)ccc1Oc1cnc(C3=CCOCC3)cc12 to the correct category.
center range

Hello team, could you let me know which band the following compound falls into: NC1=N[C@@]2(CS1)c1cc(-c3cccnc3F)ccc1Oc1cnc(N3CCC(F)(F)CC3)cc12
bottom range

Textbook exercise: identify the category of the compound given here, NC1=N[C@@]2(CO1)c1cc(-c3cccnc3F)ccc1Oc1c(F)cc(N3CC4(CCCOC4)C3)cc12 , according to its measured value.
bottom range

Returns: class label. Input: CC(C)(C)COc1cc2c(cn1)Oc1ccc(-c3cccnc3F)cc1C21COC(N)=N1 (stereo not drawn) [Example 102, 2,2,2-trifluoroacetate]
center range

Would you mind sorting CC1(C#Cc2cc(F)c3c(c2)C2(COC(N)=N2)c2cc(-c4cccnc4F)ncc2O3)COC1 (stereo not drawn) into the appropriate category?
center range

Where would CC1(C)C[C@@H](c2cnc3c(c2)[C@]2(COC(N)=N2)c2cc(-c4cccc(C#N)c4)ccc2O3)CCO1 land among the classes by reported IC50?
center range

Could you tell me which band NC1=N[C@@]2(CO1)c1cc(-c3cccnc3F)ccc1Oc1cc(OC(F)(F)F)c(-c3ccnc(F)c3)cc12 belongs to?
top range

Assign a category based on measured IC50 for COc1ncc(-c2ccc3c(c2)[C@@]2(COC(N)=N2)c2cc(N4CCC(F)(F)C4)ncc2O3)cn1 and give only the class name.
top range

Please report the category associated with NC1=N[C@@]2(CO1)c1cc(Oc3cccc(Cl)n3)ccc1Oc1c(F)cc(N3CCOCC3)cc12 , nothing else.
top range

Into which category would you place COC(C)(C)COc1cnc2c(c1)[C@@]1(COC(N)=N1)c1cc(-c3cc(Cl)ccc3F)ccc1O2 ?
top range

// bin(item) where item = CC1(C#Cc2cnc3c(c2)[C@]2(COC(N)=N2)c2cc(-c4cnccc4F)c(F)cc2O3)COC1
bottom range

Which IC50 band matches NC1=N[C@@]2(CS1)c1cc(-c3cccnc3F)ccc1Oc1cnc(C3CCOCC3)cc12 ?
center range

Categorize the following entry: CC1(C#Cc2cnc3c(c2)[C@@]2(COC(N)=N2)c2cc(-c4cccnc4F)c(F)cc2O3)COC1
center range

Classify this compound: NC1=N[C@@]2(CO1)c1cc(-c3ccnc(F)c3)ccc1Oc1cnc(Cl)cc12
top range

# classify by IC50 band: NC1=N[C@@]2(CS1)c1cc(-c3cccnc3F)ccc1Oc1ncc(Br)cc12
center range

Using the reported IC50, which band applies to Cc1ccc(-c2ccc3c(c2)[C@@]2(COC(N)=N2)c2cc(C4=CCOCC4)cnc2O3)o1 ?
top range

Could you place CC#Cc1cncc(-c2ccc3c(c2)[C@@]2(CSC(N)=N2)c2cc(C#CC4(C)COC4)cnc2O3)c1 in its proper category? Many thanks.
bottom range

Place this compound in its band: N#Cc1cccc(-c2ccc3c(c2)[C@@]2(CSC(N)=N2)c2cc(C4=CCCOC4)cnc2O3)c1F
center range

Band of NC1=N[C@@]2(CS1)c1cc(-c3cccnc3F)ccc1Oc1c(F)cc(-c3ccncc3)cc12 ?
center range

Determine which band this compound sits in: CC(C)(C#N)COc1cc(F)c2c(c1)[C@]1(COC(N)=N1)c1cc(-c3cncnc3)c(F)cc1O2
bottom range

Tag the class for Cc1cnccc1-c1cc2c(cn1)Oc1ccc(-c3cccnc3F)cc1[C@@]21COC(N)=N1
top range

Please indicate the class for CC1(C)CC(c2cnc3c(c2)[C@@]2(COC(N)=N2)c2c(ccc(-c4cncnc4)c2F)O3)=CCO1 based on its IC50.
top range

Tag the class for NC1=N[C@@]2(CS1)c1cc(Br)ccc1Oc1c2cc(Cl)nc1F
top range

Tag the class for Cn1cc(-c2cc(F)c3c(c2)[C@]2(COC(N)=N2)c2cc(-c4ccc(F)nc4)ccc2O3)cn1
center range

Which class does NC1=N[C@@]2(CS1)c1cc(-c3cccnc3F)ccc1Oc1c(F)cc(N3C[C@@H]4C[C@H]3CO4)cc12 fall in?
center range

Class for N#Cc1cccc(-c2ccc3c(c2)[C@@]2(COC(N)=N2)c2cc(N4CC[C@@H](F)C4)ncc2O3)c1 ?
bottom range

Tag the class for CC(C)(C#N)COc1cc(F)c2c(c1)[C@]1(COC(N)=N1)c1cc(-c3cncc(Cl)c3)ccc1O2
bottom range

Please classify: NC1=N[C@@]2(CS1)c1cc(-c3cncnc3)c(F)cc1Oc1c(F)cc(N3CCOCC3)cc12
center range

Band of CC1(C#Cc2cnc3c(c2)[C@]2(COC(N)=N2)c2cc(-c4cncc(F)c4)ccc2O3)COC1 ?
center range

Which class does CC1(C#Cc2cc3c(cn2)Oc2ccc(-c4cccnc4F)cc2[C@@]32CSC(N)=N2)COC1 fall in?
bottom range
